Data origin: the supplement of paper PMC4862054

tested on: HDQ-P1; experiment: normalised response (% of control), CellTox Green; higher = less cell death (100 = DMSO, 0 = benzethonium chloride kill control); conditions: incubation time: 72 h
propertyMeasured: normalised response (%)

1. Clc1ccc(Nc2nnc(Cc3ccncc3)c3ccccc23)cc1 [Vatalanib] (10000 nM) :: 114
2. Cn1c(Nc2ccc(C(F)(F)F)cc2)nc2cc(Oc3ccnc(-c4ncc(C(F)(F)F)[nH]4)c3)ccc21 [RAF265] (100 nM) :: 113
3. Cc1ccc(C(=O)N(CCCN)[C@@H](c2oc3cc(Cl)ccc3c(=O)c2Cc2ccccc2)C(C)C)cc1 (1 nM) :: 100
4. Cn1c(Nc2ccc(C(F)(F)F)cc2)nc2cc(Oc3ccnc(-c4ncc(C(F)(F)F)[nH]4)c3)ccc21 [RAF265] (1000 nM) :: 109
5. O=C(CCCCCCC(=O)Nc1ccc([C@H]2O[C@@H](CSc3nc(-c4ccccc4)c(-c4ccccc4)o3)C[C@@H](c3ccc(CO)cc3)O2)cc1)NO [Tubacin] (10000 nM) :: 102
6. Cn1c(Nc2ccc(C(F)(F)F)cc2)nc2cc(Oc3ccnc(-c4ncc(C(F)(F)F)[nH]4)c3)ccc21 [RAF265] (10 nM) :: 52.6
7. CS(=O)(=O)c1ccc(C2=C(c3ccccc3)C(=O)OC2)cc1 [Rofecoxib] (10000 nM) :: 112
8. NC(=O)Nc1cc(-c2cccc(F)c2)sc1C(=O)N[C@H]1CCCNC1 [AZD7762] (1000 nM) :: 90.3
9. CNCc1ccc(-c2[nH]c3cc(F)cc4c3c2CCNC4=O)cc1 [Rucaparib] (10000 nM) :: 105
10. CO[C@H]1/C=C\C=C(/C)C(=O)NC2=CC(=O)C(NCCN(C)C)=C(C[C@@H](C)C[C@H](OC)[C@H](O)[C@@H](C)/C=C(\C)[C@@H]1OC(N)=O)C2=O [Alvespimycin] (1000 nM) :: 80
11. C=C(c1ccc(C(=O)O)cc1)c1cc2c(cc1C)C(C)(C)CCC2(C)C [Bexarotene] (100 nM) :: 108
12. C#Cc1cccc(Nc2ncnc3cc(OCCOC)c(OCCOC)cc23)c1 [Erlotinib] (10000 nM) :: 79.7
13. CC(=O)Nc1ccc(C(=O)Nc2ccccc2N)cc1 [Tacedinaline] (10 nM) :: 104
14. N.N.[Cl][Pt][Cl] [Cisplatin] (100 nM) :: 118
15. Cc1ccc(C(=O)Nc2ccc(CN3CCN(C)CC3)c(C(F)(F)F)c2)cc1C#Cc1cnc2cccnn12 [Ponatinib] (1000 nM) :: 76.6

----------
system: CAL-148; assay: normalised viability (% of control), CellTiter-Blue; higher = more viable cells (100 = DMSO, 0 = benzethonium chloride kill control); settings: incubation time: 72 h
propertyMeasured: normalised viability (%)

1) C=C(c1ccc(C(=O)O)cc1)c1cc2c(cc1C)C(C)(C)CCC2(C)C [Bexarotene] (1 nM) :: 105
2) NCC(=O)CCC(=O)O [Aminolevulinic acid] (1 nM) :: 109
3) Cc1ccc(C(=O)N(CCCN)[C@@H](c2oc3cc(Cl)ccc3c(=O)c2Cc2ccccc2)C(C)C)cc1 (0.1 nM) :: 111
4) C[C@]12CC[C@@H]3c4ccc(O)cc4C[C@@H](CCCCCCCCC[S+]([O-])CCCC(F)(F)C(F)(F)F)[C@H]3[C@@H]1CC[C@@H]2O (stereo not given in full) [Fulvestrant] (1 nM) :: 102
5) COc1cc([C@@H]2c3cc4c(cc3[C@@H](O[C@@H]3O[C@@H]5CO[C@@H](C)O[C@H]5[C@H](O)[C@H]3O)[C@H]3COC(=O)[C@H]23)OCO4)cc(OC)c1O [Etoposide] (1 nM) :: 110
6) CN(C)/N=N/c1[nH]cnc1C(N)=O [Dacarbazine] (1 nM) :: 99.7
7) NC(=O)Nc1cc(-c2cccc(F)c2)sc1C(=O)N[C@H]1CCCNC1 [AZD 7762] (0.1 nM) :: 104
8) C#Cc1cccc(Nc2ncnc3cc(OCCOC)c(OCCOC)cc23)c1 [Erlotinib] (1 nM) :: 97.8
9) O=C1CCC(N2C(=O)c3ccccc3C2=O)C(=O)N1 (stereo not given) [Thalidomide] (1 nM) :: 122
10) CCC1(c2ccc(N)cc2)CCC(=O)NC1=O (stereo not given) [Aminoglutethimide] (1 nM) :: 107

----------
system: HCC1937; experiment: normalised response (% of control), CellTiter-Glo; higher = more viable cells (100 = DMSO, 0 = benzethonium chloride kill control); settings: incubation time: 72 h
propertyMeasured: normalised response (%)

1) COc1cc2ncnc(Nc3ccc(F)c(Cl)c3)c2cc1NC(=O)/C=C/CN1CCCCC1 [Dacomitinib] (100 nM) :: 93.3
2) O=C(CCCCCCC(=O)Nc1ccc([C@H]2O[C@@H](CSc3nc(-c4ccccc4)c(-c4ccccc4)o3)C[C@@H](c3ccc(CO)cc3)O2)cc1)NO [Tubacin] (1 nM) :: 93.3
3) CC(C)Cn1cnc2c(N)nc3ccccc3c21 [Imiquimod] (0.25 nM) :: 97.1
4) Cc1ccc(C(=O)N(CCCN)[C@@H](c2oc3cc(Cl)ccc3c(=O)c2Cc2ccccc2)C(C)C)cc1 (10 nM) :: 101
5) Clc1ccc(Nc2nnc(Cc3ccncc3)c3ccccc23)cc1 [Vatalanib] (1000 nM) :: 103
6) Cc1ccc(-n2nc(C(C)(C)C)cc2NC(=O)Nc2ccc(OCCN3CCOCC3)c3ccccc23)cc1 [Doramapimod] (1 nM) :: 97.4
7) N[C@@H](CSC(c1ccccc1)(c1ccccc1)c1ccccc1)C(=O)O [S-trityl-L-cysteine] (4000 nM) :: 97.3
8) CO[C@H]1/C=C\C=C(/C)C(=O)NC2=CC(=O)C(NCCN(C)C)=C(C[C@@H](C)C[C@H](OC)[C@H](O)[C@@H](C)/C=C(\C)[C@@H]1OC(N)=O)C2=O [Alvespimycin] (1 nM) :: 91.6
9) CCCCCCCCCCCCCCCCCCOP(=O)([O-])OC1CC[N+](C)(C)CC1 [Perifosine] (0.25 nM) :: 98.8
10) Cn1c(CCCC(=O)O)nc2cc(N(CCCl)CCCl)ccc21 [Bendamustine] (1000 nM) :: 95.7
11) CCC1(c2ccc(N)cc2)CCC(=O)NC1=O (stereo not given) [Aminoglutethimide] (10 nM) :: 99.3
12) C=C(c1ccc(C(=O)O)cc1)c1cc2c(cc1C)C(C)(C)CCC2(C)C [Bexarotene] (1 nM) :: 100
13) CC1(C)NC(=O)N(c2ccc([N+](=O)[O-])c(C(F)(F)F)c2)C1=O [Nilutamide] (1000 nM) :: 103
14) COc1cc2nccc(Oc3ccc(NC(=O)C4(C(=O)Nc5ccc(F)cc5)CC4)cc3)c2cc1OC [Cabozantinib] (0.1 nM) :: 100
15) COc1cc2ncnc(Nc3ccc(F)c(Cl)c3)c2cc1NC(=O)/C=C/CN1CCCCC1 [Dacomitinib] (0.1 nM) :: 104

----------
system: CAL-85-1; experiment: normalised viability (% of control), CellTiter-Blue; higher = more viable cells (about 100 = DMSO control); settings: incubation time: 72 h
Let's look at some molecules and their measured normalised viability.
propertyMeasured: normalised viability (%)

1. O=C1CCC(N2C(=O)c3ccccc3C2=O)C(=O)N1 (stereo unspecified) [Thalidomide] (3000 nM) :: 91.7
2. CNCc1ccc(-c2[nH]c3cc(F)cc4c3c2CCNC4=O)cc1 [Rucaparib] (3000 nM) :: 79.3
3. COc1cc([C@@H]2c3cc4c(cc3[C@@H](O[C@@H]3O[C@@H]5CO[C@@H](C)O[C@H]5[C@H](O)[C@H]3O)[C@H]3COC(=O)[C@H]23)OCO4)cc(OC)c1O [Etoposide] (3000 nM) :: 76.9
4. CO[C@H]1/C=C\C=C(/C)C(=O)NC2=CC(=O)C(NCCN(C)C)=C(C[C@@H](C)C[C@H](OC)[C@H](O)[C@@H](C)/C=C(\C)[C@@H]1OC(N)=O)C2=O [Alvespimycin] (300 nM) :: 24.4
5. Cc1ccc(C(=O)Nc2ccc(CN3CCN(C)CC3)c(C(F)(F)F)c2)cc1C#Cc1cnc2cccnn12 [Ponatinib] (300 nM) :: 80.5
6. CCC1(c2ccc(N)cc2)CCC(=O)NC1=O (stereo unspecified) [Aminoglutethimide] (3000 nM) :: 90.1

----------
system: BT-549; test: normalised response (% of control), CellTox Green; higher = less cell death (100 = DMSO, 0 = benzethonium chloride kill control); conditions: incubation time: 72 h
Let's look at some molecules and their measured normalised response.
propertyMeasured: normalised response (%)

1. COc1cc([C@@H]2c3cc4c(cc3[C@@H](O[C@@H]3O[C@@H]5CO[C@@H](C)O[C@H]5[C@H](O)[C@H]3O)[C@H]3COC(=O)[C@H]23)OCO4)cc(OC)c1O [Etoposide] (10000 nM) :: 85.4
2. CS(=O)(=O)c1ccc(C2=C(c3ccccc3)C(=O)OC2)cc1 [Rofecoxib] (100 nM) :: 95.7
3. O=P1(NCCCl)OCCCN1CCCl (configuration not stated) [Ifosfamide] (10000 nM) :: 77.5
4. CO[C@H]1/C=C\C=C(/C)C(=O)NC2=CC(=O)C(NCCN(C)C)=C(C[C@@H](C)C[C@H](OC)[C@H](O)[C@@H](C)/C=C(\C)[C@@H]1OC(N)=O)C2=O [Alvespimycin] (100 nM) :: 130
5. Clc1ccc(Nc2nnc(Cc3ccncc3)c3ccccc23)cc1 [Vatalanib] (10000 nM) :: 118
6. Cn1c(Nc2ccc(C(F)(F)F)cc2)nc2cc(Oc3ccnc(-c4ncc(C(F)(F)F)[nH]4)c3)ccc21 [RAF265] (1000 nM) :: 81.7
7. CN[C@@H]1C[C@H]2O[C@@](C)([C@@H]1OC)n1c3ccccc3c3c4c(c5c6ccccc6n2c5c31)C(=O)N[C@H]4O [UCN-01] (100 nM) :: 62.6
